From: patent US6124351A

Biological target: iNOS (Rattus norvegicus, UniProt Q06518)
Construct: a soluble cytosolic fraction of the finally obtained supernate was used as the crude enzyme sample of iNOS; from tissue; host or cells: lungs of LPS-treated rats, 100,000×g soluble cytosolic fraction
Sequence (Q06518 whole entry): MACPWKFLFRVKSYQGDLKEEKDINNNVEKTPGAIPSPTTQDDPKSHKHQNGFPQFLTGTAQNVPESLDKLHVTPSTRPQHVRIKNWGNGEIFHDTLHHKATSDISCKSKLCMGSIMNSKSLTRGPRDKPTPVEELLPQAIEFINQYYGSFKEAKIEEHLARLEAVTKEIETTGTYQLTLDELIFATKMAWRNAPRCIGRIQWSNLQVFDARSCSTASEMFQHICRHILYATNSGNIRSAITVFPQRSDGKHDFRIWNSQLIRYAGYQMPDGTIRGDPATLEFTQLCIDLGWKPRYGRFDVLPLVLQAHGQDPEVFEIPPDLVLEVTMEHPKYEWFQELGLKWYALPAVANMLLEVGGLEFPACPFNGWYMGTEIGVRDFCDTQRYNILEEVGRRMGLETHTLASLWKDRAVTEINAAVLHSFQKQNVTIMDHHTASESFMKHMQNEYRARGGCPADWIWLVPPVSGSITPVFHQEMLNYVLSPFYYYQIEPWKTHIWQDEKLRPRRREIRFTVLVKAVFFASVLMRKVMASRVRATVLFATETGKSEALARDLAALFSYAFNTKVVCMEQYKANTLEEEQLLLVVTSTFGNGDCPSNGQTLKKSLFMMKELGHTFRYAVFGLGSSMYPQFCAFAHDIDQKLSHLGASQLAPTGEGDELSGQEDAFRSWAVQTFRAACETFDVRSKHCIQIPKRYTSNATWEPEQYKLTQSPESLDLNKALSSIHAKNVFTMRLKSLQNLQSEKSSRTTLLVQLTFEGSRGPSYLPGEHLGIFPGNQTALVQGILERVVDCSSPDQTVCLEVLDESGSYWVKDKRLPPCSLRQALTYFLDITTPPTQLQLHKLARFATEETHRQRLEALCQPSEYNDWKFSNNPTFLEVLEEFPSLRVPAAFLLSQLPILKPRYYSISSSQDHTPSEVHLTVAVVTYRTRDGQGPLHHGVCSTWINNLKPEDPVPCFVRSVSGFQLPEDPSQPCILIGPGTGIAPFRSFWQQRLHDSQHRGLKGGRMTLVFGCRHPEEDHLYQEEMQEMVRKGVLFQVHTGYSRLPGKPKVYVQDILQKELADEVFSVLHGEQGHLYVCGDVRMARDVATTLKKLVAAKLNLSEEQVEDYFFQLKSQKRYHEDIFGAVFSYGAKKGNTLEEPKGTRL
Assay: Inhibition of iNOS, soluble fraction of lungs of LPS-treated rats; conversion of L-[3H] arginine to L-[3H] citrulline
Assay type: biochemical
Details: read-out: IC50 value iNOS (the concentration necessary to inhibit 50% activity); iNOS, LPS rat lung; 100 μM L-[3H] arginine, 37° C., 10 min, pH 7.4; mean ± standard error
List of IC50 values.
Use µM as the unit, but write only the number.

Observe how each entry below is paired with its result.
INSERT INTO measurements (compound, measured_target, endpoint_result) VALUES
  ('COC(=O)[C@@H](N)CCCNC(=N)N[N+](=O)[O-] [L-NAME, N^G -nitro-L-arginine methyl ester, reference compound]', 'iNOS (Rattus norvegicus, UniProt Q06518)', 13.5),
  ('CCSC(=N)NCCC[C@H](N)C(=O)O [Example 2, δ-(S-ethylisothioureido)-L-norvaline]', 'iNOS (Rattus norvegicus, UniProt Q06518)', 6.76);

query: What value of measured IC50 is listed for N=C(NCCC[C@H](N)C(=O)O)NC1CC1 [L-CPA, N^G -cyclopropyl-L-arginine, reference compound] ?
result: 7.15
